System: SK-MEL-5
test details: Growth inhibition of human SK-MEL-5 cells incubated for 48 hrs by sulforhodamine B assay
Format: functional
experimental conditions: SK-MEL-5, 48 h
quantity kind: GI50

What GI50 value was documented for this compound, COc1cc2cc(Oc3ccc(NC(=O)Nc4ccc(Cl)c(Cl)c4)cc3)c(C)nc2cc1OC ?
2.58 µM

What GI50 value was documented for this compound, Cc1nc2cc(O)c(O)cc2cc1Oc1ccc(NC(=O)Nc2ccc(Cl)c(Cl)c2)cc1 ?
5.94 µM

What GI50 value was documented for this compound, COc1cc2cc(Oc3ccc(NC(=O)Nc4ccc(Cl)c(C(F)(F)F)c4)cc3)c(C)nc2cc1OC ?
0.793 µM

What GI50 value was documented for this compound, COc1cc2cc(Oc3ccc(NC(=O)Nc4cc(C(F)(F)F)cc(C(F)(F)F)c4)cc3)c(C)nc2cc1OC ?
1.62 µM

What GI50 value was documented for this compound, COc1cc2cc(Oc3ccc(NC(=O)Nc4cccc(C(F)(F)F)c4)cc3)c(C)nc2cc1OC ?
1.08 µM

---

Tested on: OVCAR-4
test details: Growth inhibition of human OVCAR4 cells assessed as cell growth at 10 uM incubated for 48 hrs by sulforhodamine B assay relative to control
Format: functional
experimental conditions: OVCAR-4, 48 h, read-out: Activity
Kindly supply the reported growth at 10 µM values for the records listed here.
// units = %; emit number, no label

What growth at 10 µM value was documented for this compound, COc1cc2cc(Oc3ccc(NC(=O)Nc4cc(C(F)(F)F)cc(C(F)(F)F)c4)cc3)c(C)nc2cc1OC ?
27.9

What growth at 10 µM value was documented for this compound, COc1cc2cc(Oc3ccc(NC(=O)Nc4cccc(C(F)(F)F)c4)cc3)c(C)nc2cc1OC ?
31.7

What growth at 10 µM value was documented for this compound, COc1cc2cc(Sc3ccc(NC(=O)Nc4ccc(Cl)c(Cl)c4)cc3)c(C)nc2cc1OC ?
78.2

What growth at 10 µM value was documented for this compound, COc1cc2cc(Oc3ccc(NC(=O)Nc4ccc(Cl)c(C(F)(F)F)c4)cc3)c(C)nc2cc1OC ?
17.1

What growth at 10 µM value was documented for this compound, COc1cc2cc(Oc3ccc(NC(=O)Nc4ccccc4)cc3)c(C)nc2cc1OC ?
70.2

What growth at 10 µM value was documented for this compound, Cc1nc2cc(O)c(O)cc2cc1Oc1ccc(NC(=O)Nc2ccc(Cl)c(Cl)c2)cc1 ?
67.7

What growth at 10 µM value was documented for this compound, COc1cc2cc(Oc3ccc(NC(=O)Nc4ccc(C(F)(F)F)cc4)cc3)c(C)nc2cc1OC ?
49

What growth at 10 µM value was documented for this compound, COc1cc2cc(Oc3ccc(NC(=O)Nc4ccc(Cl)c(Cl)c4)cc3)c(C)nc2cc1OC ?
31.9

---

Kindly supply the reported GI50 values for the records listed here.
Tested on: CCRF-CEM
test details: Growth inhibition of human CCRF-CEM cells incubated for 48 hrs by sulforhodamine B assay
Type: functional
// units = µM; emit number, no label

Give CCRF-CEM GI50 for Cc1nc2cc(O)c(O)cc2cc1Oc1ccc(NC(=O)Nc2ccc(Cl)c(Cl)c2)cc1
6.19

Give CCRF-CEM GI50 for COc1cc2cc(Oc3ccc(NC(=O)Nc4ccc(Cl)c(Cl)c4)cc3)c(C)nc2cc1OC
2.38

Give CCRF-CEM GI50 for COc1cc2cc(Oc3ccc(NC(=O)Nc4cc(C(F)(F)F)cc(C(F)(F)F)c4)cc3)c(C)nc2cc1OC
0.64

Give CCRF-CEM GI50 for CNC(=O)c1cc(Oc2ccc(NC(=O)Nc3ccc(Cl)c(C(F)(F)F)c3)cc2)ccn1
2

Give CCRF-CEM GI50 for COc1cc2cc(Oc3ccc(NC(=O)Nc4ccc(Cl)c(C(F)(F)F)c4)cc3)c(C)nc2cc1OC
1.01

---

Tested on: M14
test details: Growth inhibition of human M14 cells assessed as cell growth at 10 uM incubated for 48 hrs by sulforhodamine B assay relative to control
Assay type: functional
experimental conditions: M14, 48 h, read-out: Activity
quantity kind: growth at 10 µM (%)
// units = %; emit number, no label

What growth at 10 µM value was documented for this compound, Cc1nc2cc(O)c(O)cc2cc1Oc1ccc(NC(=O)Nc2ccc(Cl)c(Cl)c2)cc1 ?
80.8

What growth at 10 µM value was documented for this compound, COc1cc2cc(Oc3ccc(NC(=O)Nc4ccc(C(F)(F)F)cc4)cc3)c(C)nc2cc1OC ?
95.2

What growth at 10 µM value was documented for this compound, COc1cc2cc(Oc3ccc(NC(=O)Nc4ccc(C)cc4)cc3)c(C)nc2cc1OC ?
124

What growth at 10 µM value was documented for this compound, COc1cc2cc(Oc3ccc(NC(=O)Nc4ccccc4)cc3)c(C)nc2cc1OC ?
93.7

What growth at 10 µM value was documented for this compound, COc1cc2cc(Oc3ccc(NC(=O)Nc4cccc(C(F)(F)F)c4)cc3)c(C)nc2cc1OC ?
22.6

What growth at 10 µM value was documented for this compound, COc1cc2cc(Oc3ccc(NC(=O)Nc4cc(C(F)(F)F)cc(C(F)(F)F)c4)cc3)c(C)nc2cc1OC ?
9.04

What growth at 10 µM value was documented for this compound, COc1cc2cc(Sc3ccc(NC(=O)Nc4ccc(Cl)c(Cl)c4)cc3)c(C)nc2cc1OC ?
81.3

What growth at 10 µM value was documented for this compound, COc1cc2cc(Oc3ccc(NC(=O)Nc4ccc(Cl)c(C(F)(F)F)c4)cc3)c(C)nc2cc1OC ?
-73.7

What growth at 10 µM value was documented for this compound, COc1cc2cc(Oc3ccc(NC(=O)Nc4ccc(Cl)c(Cl)c4)cc3)c(C)nc2cc1OC ?
25.8

---

Test system: HOP-92
test details: Growth inhibition of human HOP92 cells incubated for 48 hrs by sulforhodamine B assay
Assay type: functional
experimental conditions: HOP-92, 48 h
quantity kind: LC50 (µM)
// units = µM; emit number, no label

What LC50 value was documented for this molecule, COc1cc2cc(Oc3ccc(NC(=O)Nc4cccc(C(F)(F)F)c4)cc3)c(C)nc2cc1OC ?
21.2

What LC50 value was documented for this molecule, COc1cc2cc(Oc3ccc(NC(=O)Nc4cc(C(F)(F)F)cc(C(F)(F)F)c4)cc3)c(C)nc2cc1OC ?
40.9

What LC50 value was documented for this molecule, COc1cc2cc(Oc3ccc(NC(=O)Nc4ccc(Cl)c(C(F)(F)F)c4)cc3)c(C)nc2cc1OC ?
10.3

What LC50 value was documented for this molecule, COc1cc2cc(Oc3ccc(NC(=O)Nc4ccc(Cl)c(Cl)c4)cc3)c(C)nc2cc1OC ?
14.2

---

Test system: A549
test details: Growth inhibition of human A549/ATCC cells incubated for 48 hrs by sulforhodamine B assay
Type: functional
experimental conditions: A549, 48 h
quantity kind: TGI (µM)
// units = µM; emit number, no label

Give A549 TGI for COc1cc2cc(Oc3ccc(NC(=O)Nc4ccc(Cl)c(C(F)(F)F)c4)cc3)c(C)nc2cc1OC
4.16

Give A549 TGI for COc1cc2cc(Oc3ccc(NC(=O)Nc4ccc(Cl)c(Cl)c4)cc3)c(C)nc2cc1OC
7.61

Give A549 TGI for COc1cc2cc(Oc3ccc(NC(=O)Nc4cccc(C(F)(F)F)c4)cc3)c(C)nc2cc1OC
6.49

Give A549 TGI for Cc1nc2cc(O)c(O)cc2cc1Oc1ccc(NC(=O)Nc2ccc(Cl)c(Cl)c2)cc1
26.2

Give A549 TGI for COc1cc2cc(Oc3ccc(NC(=O)Nc4cc(C(F)(F)F)cc(C(F)(F)F)c4)cc3)c(C)nc2cc1OC
4.75

Give A549 TGI for CNC(=O)c1cc(Oc2ccc(NC(=O)Nc3ccc(Cl)c(C(F)(F)F)c3)cc2)ccn1 [SORAFENIB]
7.94

---

Tested on: SNB-75
test details: Growth inhibition of human SNB75 cells incubated for 48 hrs by sulforhodamine B assay
Format: functional
experimental conditions: SNB-75, 48 h, read-out: LC50 (the source's name)
Kindly supply the reported CC50 values for the records listed here.

Give SNB-75 CC50 for COc1cc2cc(Oc3ccc(NC(=O)Nc4ccc(Cl)c(C(F)(F)F)c4)cc3)c(C)nc2cc1OC
> 32.5 µM

Give SNB-75 CC50 for COc1cc2cc(Oc3ccc(NC(=O)Nc4cccc(C(F)(F)F)c4)cc3)c(C)nc2cc1OC
> 50 µM

Give SNB-75 CC50 for Cc1nc2cc(O)c(O)cc2cc1Oc1ccc(NC(=O)Nc2ccc(Cl)c(Cl)c2)cc1
> 32.5 µM

Give SNB-75 CC50 for COc1cc2cc(Oc3ccc(NC(=O)Nc4cc(C(F)(F)F)cc(C(F)(F)F)c4)cc3)c(C)nc2cc1OC
> 100 µM

Give SNB-75 CC50 for COc1cc2cc(Oc3ccc(NC(=O)Nc4ccc(Cl)c(Cl)c4)cc3)c(C)nc2cc1OC
66.1 µM

Ref: ChEMBL document CHEMBL3994622
